Give measured GI50 for each item. Keep answers brief.
Tested on: 786-0
Experiment: NCI tumour cell line growth inhibition, 48 h
Active and inactive are the calls of the source. Rule as the data show it: active = GI50 up to about 1.1 µM and inactive = higher.

GI50 in this record for CC(/C(=N/NC(=O)C(N)=O)c1c(Cl)ccc(Cl)c1O)C1(O)C(=O)Nc2ccccc21 (stereo not drawn) : 57 µM (inactive)

GI50 in this record for Cc1cc2c(cc1Cl)Sc1nnc(Nc3ccccc3)n1S2(=O)=O : 4.75 µM (inactive)

GI50 in this record for CC(=O)Oc1ccc2oc(=O)cc(C)c2c1 : > 100 µM (inactive)

GI50 in this record for COc1cccc(-c2c(C#N)c(N)nc3c2CCS(=O)(=O)c2ccc(C)cc2-3)c1 : 61.7 µM (inactive)

GI50 in this record for Cc1ccc(C)n1-n1c(Cc2ccccc2)n[nH]c1=O : > 100 µM (inactive)

GI50 in this record for CC(=O)O[C@@H]1CC[C@@]2(C)C(CC[C@H]3[C@@H]4CC[C@H]([C@H](C)CCc5nc6cc(C)ccc6[nH]5)[C@@]4(C)CC[C@@H]32)C1 (stereo partly drawn) : 8.69 µM (inactive)

GI50 in this record for C=C(C)[C@@H]1C[C@H]2O[C@](O)(C(=C)CC(=O)/C=C(/C)C[C@@H]3OC(=O)[C@]24O[C@@H]34)[C@H]1O : > 100 µM (inactive)

GI50 in this record for CC1(C)OCC(CO)(Nc2nc(N3CC3)nc(N3CC3)n2)CO1 : 3.88 µM (inactive)

GI50 in this record for CCCCCCCCCCCCNC(=O)NCC(OCC)OCC : > 10 µM (inactive)

GI50 in this record for C[N+](C)(C)CC(=O)N/N=C(/C=C/c1ccccc1)CC1OC(=O)c2ccccc21 (stereo not drawn) : > 100 µM (inactive)

GI50 in this record for N#Cc1ccccc1NC(=O)C(=O)C(C(=O)c1ccncc1)C1OC(=O)c2ccccc21 (stereo not drawn) : > 100 µM (inactive)

GI50 in this record for COC(OC)[C@@H]1OC[C@H](n2ccc(=O)[nH]c2=O)[C@H]1O : > 100 µM (inactive)

GI50 in this record for c1csc(-c2ccc(-c3ccsc3)s2)c1 : > 100 µM (inactive)

GI50 in this record for Cc1ccc(S(=O)(=O)NC(CN)C(=O)O)cc1 (stereo not drawn) : > 100 µM (inactive)

GI50 in this record for CCOC(=O)C(C)c1nc2cc3cccnc3c(Cl)c2[nH]c1=O (stereo not drawn) : > 100 µM (inactive)

GI50 in this record for CC(C)(C)[Si](C)(C)O/N=C\c1ccc(O[Si](C)(C)C(C)(C)C)cc1 : 38.5 µM (inactive)

GI50 in this record for N#CC1CC2(C(=O)C1=O)c1ccccc1-c1ccccc12 (stereo not drawn) : > 100 µM (inactive)

GI50 in this record for COC(=O)C1=C(O)C(O)=C(C(=O)OC)CC1 : > 100 µM (inactive)

###

System: TK-10
Experiment: NCI tumour cell line growth inhibition, 48 h
Active and inactive are the calls of the source. Rule as the data show it: active = GI50 up to about 1.1 µM and inactive = higher.
Give measured GI50 for each item. Keep answers brief.

GI50 in this record for CCCNc1[nH]c(C(C)=O)c(N)c1C(=S)Nc1ccccc1 : 39.1 µM (inactive)

GI50 in this record for O=[N+]([O-])c1ccc(C2CC(c3ccccc3Cl)=Nc3ccccc3[S+]2[O-])cc1 (configuration not stated) : 8.02 µM (inactive)

GI50 in this record for Cc1ccc(Cc2n[nH]c(=O)n2-c2ccccc2)cc1 : > 100 µM (inactive)

GI50 in this record for CC(=O)Oc1ccccc1C(=O)C1c2cccc(O)c2C(=O)c2c(O)cccc21 : 3.65 µM (inactive)

GI50 in this record for COc1c(O)c(C=O)c2c(O)c(-c3c(C)cc4c(C(C)C)c(OC)c(O)c(C=O)c4c3O)c(C)cc2c1C(C)C : 6.71 µM (inactive)

GI50 in this record for C=CCc1cc(-c2cc(CC=C)c(O)c(CNC)c2)cc(CNC)c1O : 17.7 µM (inactive)

GI50 in this record for O=C1Nc2ccccc2/C1=N/Nc1nc(-c2ccc([N+](=O)[O-])cc2)cs1 : 17.5 µM (inactive)

GI50 in this record for CCOC(=O)c1nc2cc(F)c(N3CCOCC3)cc2[nH]c1=O : > 100 µM (inactive)

GI50 in this record for C=C(C)[C@@H]1C[C@H]2O[C@](O)(C(=C)CC(=O)/C=C(/C)C[C@@H]3OC(=O)[C@]24O[C@@H]34)[C@H]1O : > 100 µM (inactive)

GI50 in this record for COC(=O)C1=C(C)C(=O)[C@H]2C(C(=O)OC)CCCC[C@@H]12 (some centres not stated) : > 100 µM (inactive)

GI50 in this record for O=C1OC(c2ccc(O)c(Cl)c2)(c2ccc(O)c(Cl)c2)c2ccc(Br)c3cccc1c23.O=C1OC(c2ccc(O)c(Cl)c2)(c2ccc(O)c(Cl)c2)c2cccc3c(Br)ccc1c23 : 17.1 µM (inactive)

GI50 in this record for COc1cc(-c2ccc(Nc3ccccc3C(=O)O)c(OC)c2)ccc1Nc1ccccc1C(=O)O : 36.6 µM (inactive)

GI50 in this record for Cc1cc2c(C(C)C)c(O)c(O)c(/C=N\CCO)c2c(O)c1-c1c(C)cc2c(C(C)C)c(O)c(O)c(/C=N/CCO)c2c1O : 6.4 µM (inactive)

GI50 in this record for Cc1cc2c(cc1Cl)SC(NNc1cnc3ccccc3n1)=NS2(=O)=O : > 100 µM (inactive)

GI50 in this record for CC(C)=CCC/C(C)=C\CCC1(C)OC(=O)C2CC21 (configuration not stated) : 56.6 µM (inactive)

GI50 in this record for COc1cc(/C=C2\C(=O)N(c3ccccc3)C(c3ccccc3)S2(=O)=O)cc(OC)c1OC (configuration not stated) : 65 µM (inactive)

GI50 in this record for CC(C)CC(O)P(=O)(O)O.NC1CCCCC1 (configuration not stated) : > 100 µM (inactive)

GI50 in this record for COc1ccc(C(O)CNC(=O)c2ccccc2)cc1 (configuration not stated) : > 100 µM (inactive)

GI50 in this record for COc1c(OC2OC(CO)C(O)C(O)C2O)cc2c(c1OC)-c1ccc(OC)c(=O)cc1[C@@H](NC(C)=O)CC2 (some centres not stated) : > 100 µM (inactive)

GI50 in this record for CCN(CC)CCOc1ccccc1/C=C/c1noc2ccccc12 : 15 µM (inactive)

GI50 in this record for NC(=O)c1cc2ccccc2c(/N=N/c2ccccc2)c1O : > 100 µM (inactive)

GI50 in this record for O=c1[nH]cc(F)c(=O)n1C1OC(CO)C(O)C1O (configuration not stated) : > 100 µM (inactive)

GI50 in this record for CN(C)c1ncc(-c2c[nH]c3ccccc23)nc1-c1c[nH]c2ccccc12 : 8.59 µM (inactive)

GI50 in this record for Cc1cc2c(cc1C)NC(=O)C(NC(=O)/C=C/c1ccccc1)C=N2 (configuration not stated) : 50.6 µM (inactive)

GI50 in this record for CCOC(=O)/C(=N\Nc1ccc(-n2c(C)nc3ccc(Br)cc3c2=O)cc1)C(C)=O : 60.3 µM (inactive)

GI50 in this record for C[C@]12CCNC(=O)C=C1CC[C@@H]1C2CC[C@@]2(C)C1CC[C@@H]2OC(=O)COc1ccc(N(CCCl)CCCl)cc1 (some centres not stated) : 17.6 µM (inactive)

GI50 in this record for CCOC(=O)/C(C#N)=N\Nc1ccc(-n2c(C)nc3ccc(Br)cc3c2=O)cc1 : > 100 µM (inactive)

###

Test system: SF-295
Assay: NCI tumour cell line growth inhibition, 48 h
Activity calls are given as the source filed them. Rule as the data show it: active = GI50 up to about 1.1 µM and inactive = higher.
# valid calls are yes (active), no (inactive); nothing else

[in] Give the logged outcome of this assay for the following molecule: CN(C)c1ccc(C2SCC(=O)N2c2ccc(Oc3ccc(Cl)cc3)c(Cl)c2)cc1 (stereo unspecified)
[out] no

[in] Give the logged outcome of this assay for the following molecule: CCCCCCCCCCCCCCCCCCOCC(CCP(=O)(CP(=O)(O)O)Oc1ccccc1)OCCCCCCCCCCCCCCCCCC (stereo unspecified)
[out] no

[in] Give the logged outcome of this assay for the following molecule: CN(C)c1ccc2c(NCCCCCCNc3ccnc4cc(N(C)C)ccc34)ccnc2c1
[out] no

[in] Give the logged outcome of this assay for the following molecule: NC(Cc1ccccc1)C(=O)NC(Cc1ccccc1)NC(=O)C(Cc1c[nH]c2ccccc12)C(=O)O (stereo unspecified)
[out] no

[in] Give the logged outcome of this assay for the following molecule: CN(C)/N=N/c1ccc(S(N)(=O)=O)cc1
[out] no

[in] Give the logged outcome of this assay for the following molecule: CC(Oc1ccccc1Cl)C(=O)NN1C(=O)CC(=O)N(c2ccccc2)C1=S (stereo unspecified)
[out] no

[in] Give the logged outcome of this assay for the following molecule: CC(=O)Oc1ccccc1C(=O)C1c2cccc(O)c2C(=O)c2c(O)cccc21
[out] yes

[in] Give the logged outcome of this assay for the following molecule: CC(/C(=N/NC(=O)C(N)=O)c1c(Cl)ccc(Cl)c1O)C1(O)C(=O)Nc2ccccc21 (stereo unspecified)
[out] no

[in] Give the logged outcome of this assay for the following molecule: COC(=O)N1CC2(CO)C3CC=C(C(=O)Nc4ccccc4Br)C2C1C3Br (stereo unspecified)
[out] no

[in] Give the logged outcome of this assay for the following molecule: CC(C)(C)NNC(=O)/C(=C/c1ccc([N+](=O)[O-])cc1)NC(=O)c1ccccc1
[out] no

[in] Give the logged outcome of this assay for the following molecule: CC(C)OC(=O)c1ccc(NCc2cc(O)ccc2O)cc1
[out] no
